SYSTEM_NAME: T1, IL-13Rα1
T1 construct: also called IL13Ra1
T1 chain: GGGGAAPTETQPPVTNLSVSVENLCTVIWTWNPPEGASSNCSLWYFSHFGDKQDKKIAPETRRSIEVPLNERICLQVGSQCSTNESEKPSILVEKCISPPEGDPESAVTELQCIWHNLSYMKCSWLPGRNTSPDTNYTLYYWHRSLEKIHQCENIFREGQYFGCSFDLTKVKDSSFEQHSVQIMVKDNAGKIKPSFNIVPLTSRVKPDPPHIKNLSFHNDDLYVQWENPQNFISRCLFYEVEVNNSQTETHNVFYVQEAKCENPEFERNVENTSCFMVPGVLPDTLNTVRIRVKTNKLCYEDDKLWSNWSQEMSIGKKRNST
METHOD_SUMMARY: SPR, kinetic (column K1)
OBSERVED_PROPERTY: kon (M⁻¹ s⁻¹)
One number for each entry, in M⁻¹ s⁻¹.

Sample answers from the record:
A7 (ligand, grouped under 'IL-13Rα1 specific'; also called IL-13 variant A7) cytokine: PGPVPPSTAIRELIEELINITQNQKAPLCNGSMVWSINLTAGMYCAALESLINVSGCSAIEKTQRMLSGFCPHKVSAGQFSSLHVRGSKIEVAQFVKDLLHHLRALFREGQFN : 2.9e+06
A8 (ligand, grouped under 'IL-13Rα1 specific'; also called IL-13 variant A8) cytokine: PGPVPPSTAIRELIEELINITQNQKAPLCNGSMVWSINLTAGMYCAALESLINVSGCSAIEKTQRMLSGFCPHKVSAGQFSSLHVRSSRIEVAQFVKDLLHHLRTLFREGQFN : 1.64e+06
B6 (ligand, grouped under 'IL-13Rα1 specific'; also called IL-13 variant B6) cytokine: PGPVPPSTATRELIEELINITQNQKAPLCNGSMVWSINLTAGMYCAALESLINVSGCSAIEKTQRMLSGFCPHKVSAGQFSSLHVRGSKIEVAQFVKDLLYHLRTLFREGQFN : 1.4e+06
B4 (ligand, grouped under 'IL-13Rα1 specific'; also called IL-13 variant B4) cytokine: PGPVPPSTALSELIEELINITQNQKAPLCNGSMVWSINLTAGMYCAALESLINVSGCSAIEKTQRMLSGFCPHKVSAGQFSSLHVKGSMIEVAQFVKDLLYHLRTLFREGQFN : 1.36e+06
B2 (ligand, grouped under 'IL-13Rα1 specific'; also called IL-13 variant B2) cytokine: PGPVPPSTALRELIEELINITQNQKAPLCNGSMVWSINLTAGMYCAALESLINVSGCSAIEKTQRMLSGFCPHKVSAGQFSSLHVTGSKIEVAQFVKDLLYHLRALFREGQFN : 6.3e+06

API: the following record is the query input.
Name the recorded kon of the item A5 (ligand, grouped under 'IL-13Rα1 specific'; also called IL-13 variant A5) cytokine: PGPVPPSTALIELIEELINITQNQKAPLCNGSMVWSINLTAGMYCAALESLINVSGCSAIEKTQRMLSGFCPHKVSAGQFSSLHVKGSKIEVAQFVKDLLHHLRALMREGQFN in your answer.
2.8e+06
